Data provenance: ChEMBL document CHEMBL1955724

System: Escherichia coli
Assay: Antibacterial activity against Escherichia coli NCIM2065 at 10 mg after 24 to 48 hrs by agar well diffusion method
Type: functional
Conditions: read-out: DIZ
ASSAY_READOUT: zone of inhibition at 10000 µg/disc (mm)
One number for each entry, in mm.

CC(NNc1ccccc1)(c1cccnc1)P(=O)(Oc1ccccc1)Oc1ccccc1 (stereo not given) ... 32

# batch size: 3; output zone of inhibition at 10000 µg/disc per entry
1. CC(Nc1ccccc1)(c1cccnc1)P(=O)(Oc1ccccc1)Oc1ccccc1 (stereo not given)
2. Cc1ccc(NC(C)(c2cccnc2)P(=O)(Oc2ccccc2)Oc2ccccc2)cc1 (stereo not given)
3. CC(Nc1ccc(Cl)cc1)(c1cccnc1)P(=O)(Oc1ccccc1)Oc1ccccc1 (stereo not given)

A.
[13, 22, 20]

Q. Name the recorded zone of inhibition at 10000 µg/disc for CC(Nc1ccc(O)cc1)(c1cccnc1)P(=O)(Oc1ccccc1)Oc1ccccc1 (stereo not given) .
A. 20

---

Tested on: MCF7
Test: Cytotoxicity against human MCF7 cells after 72 hrs by sulforhodamine B assay
Format: functional, cell-based
Details: MCF7, 72 h
ASSAY_READOUT: IC50 (µg/mL)
Answers are plain numbers, in µg/mL.

// below: answered compounds
CC(NNc1ccccc1)(c1cccnc1)P(=O)(Oc1ccccc1)Oc1ccccc1 (stereo not given) ... 19.4
CC(Nc1ccc(O)cc1)(c1cccnc1)P(=O)(Oc1ccccc1)Oc1ccccc1 (stereo not given) ... 19.6
CC(Nc1ccccc1)(c1cccnc1)P(=O)(Oc1ccccc1)Oc1ccccc1 (stereo not given) ... 18.2

// each listed compound needs a value for IC50
1. Cc1ccc(NC(C)(c2cccnc2)P(=O)(Oc2ccccc2)Oc2ccccc2)cc1 (stereo not given)
2. CC(Nc1ccc(Cl)cc1)(c1cccnc1)P(=O)(Oc1ccccc1)Oc1ccccc1 (stereo not given)

A.
[20.2, 17.6]

---

System: Saccharomyces cerevisiae
Test: Antifungal activity against Saccharomyces cerevisiae at 10 mg after 24 to 48 hrs by agar well diffusion method
Type: functional
Conditions: read-out: DIZ
Can you tell me zone of inhibition at 10000 µg/disc for the items I'm about to list?
Numbers only, in mm.

Below, each entry is followed by its recorded zone of inhibition at 10000 µg/disc result.
Cc1ccc(NC(C)(c2cccnc2)P(=O)(Oc2ccccc2)Oc2ccccc2)cc1 (stereo not given) ... 16
CC(Nc1ccc(O)cc1)(c1cccnc1)P(=O)(Oc1ccccc1)Oc1ccccc1 (stereo not given) ... 16
CC(NNc1ccccc1)(c1cccnc1)P(=O)(Oc1ccccc1)Oc1ccccc1 (stereo not given) ... 27
CC(Nc1ccccc1)(c1cccnc1)P(=O)(Oc1ccccc1)Oc1ccccc1 (stereo not given) ... 14

Q. If you can, please state the reported zone of inhibition at 10000 µg/disc value of CC(Nc1ccc(Cl)cc1)(c1cccnc1)P(=O)(Oc1ccccc1)Oc1ccccc1 (stereo not given) .
A. 23

---

Please respond with reported zone of inhibition at 10000 µg/disc for every item in the list.
Tested on: Candida albicans
Experiment: Antifungal activity against Candida albicans at 10 mg after 24 to 48 hrs by agar well diffusion method
Format: functional
Conditions: read-out: DIZ
Answers are plain numbers, in mm.

Answered cases to consult:
CC(NNc1ccccc1)(c1cccnc1)P(=O)(Oc1ccccc1)Oc1ccccc1 (stereo not given) ... 26
CC(Nc1ccccc1)(c1cccnc1)P(=O)(Oc1ccccc1)Oc1ccccc1 (stereo not given) ... 13
CC(Nc1ccc(Cl)cc1)(c1cccnc1)P(=O)(Oc1ccccc1)Oc1ccccc1 (stereo not given) ... 23
Cc1ccc(NC(C)(c2cccnc2)P(=O)(Oc2ccccc2)Oc2ccccc2)cc1 (stereo not given) ... 17

Q. So what zone of inhibition at 10000 µg/disc did CC(Nc1ccc(O)cc1)(c1cccnc1)P(=O)(Oc1ccccc1)Oc1ccccc1 (stereo not given) get with Candida albicans?
A. 15
